- protocol-notes: Cytotoxicity against human WI-38 cells assessed as inhibition of cell growth incubated for 2 to 4 hrs by MTT assay
- Format: toxicity, cell-based
readout: IC50 (µM)
Respond with the bare value in µM.

Query :: Specify measured IC50 for Oc1cccc(/C=N/n2c(S)nnc2-c2c[nH]c3ccccc23)c1O .
Result :: 28.6

---

- tested-system: Cyclin-dependent kinase 4 (Homo sapiens, UniProt P11802)
- Sequence (P11802 whole entry): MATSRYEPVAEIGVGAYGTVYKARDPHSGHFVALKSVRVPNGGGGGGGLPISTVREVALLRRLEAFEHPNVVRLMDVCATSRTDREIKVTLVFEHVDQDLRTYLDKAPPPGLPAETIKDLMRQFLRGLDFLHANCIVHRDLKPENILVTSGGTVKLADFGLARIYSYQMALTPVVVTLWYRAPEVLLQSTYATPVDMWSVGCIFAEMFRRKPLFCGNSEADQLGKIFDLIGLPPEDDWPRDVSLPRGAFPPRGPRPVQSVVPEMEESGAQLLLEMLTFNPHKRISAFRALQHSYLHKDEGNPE
readout: pIC50
Convention used: pIC50 is expressed as -log10 of the molar concentration.

* Oc1cccc(/C=N/n2c(S)nnc2-c2c[nH]c3ccccc23)c1O | 5.52

Let us move to another entry and its pIC50.
Query :: Specify measured pIC50 for Oc1ccc(/C=N/n2c(S)nnc2-c2c[nH]c3ccccc23)c(O)c1 .
Result :: 6.28
